# Experiment summary: Solubility of the compound in surfactant solutions
# Assay type: physicochemical
# Test context: aqueous with cosolvent or surfactant or cyclodextrin, 1% D-a-Tocopheryl polyethylene glycol 1000 succinate (TPGS)

{"Compound": "COc1cc(Nc2nn([C@H]3COCC[C@@H]3C#N)cc2C(N)=O)cc(F)n1 [compound of Formula (I)]", "solubility": "99 µg/mL"}

---

# Experiment summary: Solubility of the compound in surfactant solutions
# Format: physicochemical
# Test context: 10% Poloxamer 124 solution, aqueous with cosolvent or surfactant or cyclodextrin, 10% Poloxamer 124

{"Structure as smiles": "COc1cc(Nc2nn([C@H]3COCC[C@@H]3C#N)cc2C(N)=O)cc(F)n1", "solubility (µg/mL)": 108}

---

# Experiment summary: Solubility of the compound in surfactant solutions
# Assay type: physicochemical
# Test context: Oleoyl macrogol-6 / polyoxyl-6 glycerides (Labrafil M1944CS), oil or lipid
# From the text: To increase solubility of the compound and promote increase bioavailability, a number of surfactants were screened. The table below lists the solubilities of 1-[(3R,4S)-4-cyanotetrahydropyran-3-yl]-3-[(2-fluoro-6-methoxy-4-pyridyl)amino]pyrazole-4-carboxamide in the tested surfactant solutions.

{"Structure as smiles": "COc1cc(Nc2nn([C@H]3COCC[C@@H]3C#N)cc2C(N)=O)cc(F)n1", "Unit abbreviation": "µg/mL", "solubility": 807}

---

# Experiment summary: Solubility of the compound in surfactant solutions
# Type: physicochemical
# Test context: 30% HS15 solution, aqueous with cosolvent or surfactant or cyclodextrin, 30% HS15
Measured quantity: solubility (µg/mL)

{"Compound": "COc1cc(Nc2nn([C@H]3COCC[C@@H]3C#N)cc2C(N)=O)cc(F)n1 [compound of Formula (I)]", "Unit abbreviation": "µg/mL", "Reported value": 1420}

---

# Experiment summary: Solubility of the compound in surfactant solutions
# Assay type: physicochemical
# Test context: 10% polyvinylpyrrolidone (PVP) solution, aqueous with cosolvent or surfactant or cyclodextrin, 10% polyvinylpyrrolidone (PVP)
# Excerpt: To increase solubility of the compound and promote increase bioavailability, a number of surfactants were screened. The table below lists the solubilities of 1-[(3R,4S)-4-cyanotetrahydropyran-3-yl]-3-[(2-fluoro-6-methoxy-4-pyridyl)amino]pyrazole-4-carboxamide in the tested surfactant solutions.

{"Compound": "COc1cc(Nc2nn([C@H]3COCC[C@@H]3C#N)cc2C(N)=O)cc(F)n1 [compound of Formula (I)]", "Unit abbreviation": "µg/mL", "solubility": 133}
